Entry source: the NIST ThermoML archive (doi:10.1021/je700741x)

# STUDY_CONDITIONS: 298.15 K; 101.33 kPa; Liquid
PROPERTY_NAME: mass density (kg/m3)

Known mass density results, listed for orientation:
In [3]: df
Out[3]:
   compound_structure  property_name  unit_spec  result_number
0              CC(C)O   mass density      kg/m3          781.4
1                 CCO   mass density      kg/m3          785.2

(a) C1CCCCC1
(b) OCC(F)(F)F
Ask | Which value of mass density is greater, the one for a or the one for b ? Mark your selection by writing its label.
Reply | b
(b: 1382.4 kg/m3, a: 774 kg/m3)
